- ASSAY_METHOD_TEXT: Cytotoxicity against human Raji cells assessed as cell viability at 10000 molar ratio
- Assay type: cell-based
- CONDITION_INFO: read-out: Activity
Entries and their viability at 10000 molar ratio
Write down the numeric answer in % and omit the unit.

Answered cases to consult:
CHEMICAL_SMILES: COc1ccc(-c2coc3cc(OC(C)=O)ccc3c2=O)cc1
RECORDED_MEASUREMENT: 80
--
CHEMICAL_SMILES: COc1ccc(-c2coc3cc(OC(C)=O)c(OC)cc3c2=O)cc1
RECORDED_MEASUREMENT: 80

"COc1ccc(-c2coc3cc(O[C@@H]4O[C@H](CO)[C@@H](O)[C@H](O)[C@H]4O)c(OC)cc3c2=O)cc1" yielded viability at 10000 molar ratio of 50

"COc1ccc(-c2coc3cc(O)c(OC)cc3c2=O)cc1" yielded viability at 10000 molar ratio of 80

"COc1ccc(-c2coc3cc(O)ccc3c2=O)cc1" yielded viability at 10000 molar ratio of 20

"COc1ccc(-c2coc3cc(O[C@@H]4O[C@H](CO)[C@@H](O)[C@H](O)[C@H]4O)ccc3c2=O)cc1" yielded viability at 10000 molar ratio of 80
